Data provenance is ChEMBL document CHEMBL4837257.

- assayed system: Gamma-secretase
- run description: Modulation of gamma-secretase in human H4 cells expressing human wild type APP751 assessed as reduction in amyloid beta42 level incubated overnight by ELISA
Values of EC50 strictly less than 40 nM map to met, and values of at least 40 nM map to not met.

API: query returns whether the compound falls strictly under 40 nM in EC50. Query: COc1nc(C2=NOCC(c3ccc(C#N)cc3)N2)ccc1-n1cnc(C)c1 (stereo not given)
not met

Field: below-cutoff. Rule: recorded EC50 strictly less than 40 nM. Subject: COc1nc(C2=NOCC(c3cccc(C4CC4)c3)N2)ccc1-n1cnc(C)c1 (stereo not given)
met

Please determine if COc1nc(C2=NOCC(c3ccc(C4CC4)c(Cl)c3)N2)ccc1-n1cnc(C)c1 (stereo not given) is below 40 nM in terms of EC50.
met

# check: EC50 < 40 nM for COc1nc(C2=NOCC(c3ccccc3)N2)ccc1-n1cnc(C)c1 (stereo in doubt; 7)
not met

Is EC50 strictly under 40 nM for the entry COc1nc(C2=NOCC(c3ccc(C(F)(F)F)c(F)c3)N2)ccc1-n1cnc(C)c1 (stereo not given) ?
met

For COc1cccc(C2CON=C(c3ccc(-n4cnc(C)c4)c(OC)n3)N2)c1 (stereo not given) , is the recorded EC50 below the cut-off of 40 nM?
not met

Check if EC50 falls below 40 nM for COc1nc(C2=NOC(C)C(c3ccc(Cl)c(Cl)c3)N2)ccc1-n1cnc(C)c1 (stereo not given) .
met

Problem: For the compound COc1nc(C2=NOCC(c3ccc(F)cc3)N2)ccc1-n1cnc(C)c1 (stereo not given) , is EC50 under 40 nM?
not met

Check if EC50 falls below 40 nM for COc1nc(C2=NOCC(c3ccc(C(F)(F)F)cc3)N2)ccc1-n1cnc(C)c1 (stereo not given) .
met

###

- run description: Bioavailability in rat at 1 mg/kg, iv
- Assay type: ADME, organism-based
- stated conditions: in vivo
quantity name: bioavailability (%)
Please respond with the number in % and leave the unit unwritten.

Report bioavailability, nothing else, for this compound: COc1nc(C2=NOC(C3CC3)C(c3ccc(Cl)cc3)N2)ccc1-n1cnc(C)c1 (stereo unspecified)
86

###

- assayed system: Gamma-secretase
- run description: Inhibition of gamma secretase (unknown origin) assessed as reduction in notch cleavage
quantity name: IC50

For COc1nc(C2=NOC(C3CC3)C(c3ccc(Cl)cc3)N2)ccc1-n1cnc(C)c1 (stereo unspecified) , write its IC50.
> 10 µM

###

- assayed system: Gamma-secretase (Homo sapiens) (UniProt Q96BI3+Q9NZ42+Q8WW43+P49768+Q92542+P49810)
- run description: Modulation of gamma-secretase in human H4 cells expressing human wild type APP751 assessed as reduction in amyloid beta42 level incubated overnight by ELISA
- Type: cell-based
- stated conditions: filed as modulator
Task for the reader: assign each of the following compounds its reported EC90.
Note: unit nM is implicit; provide only the numeric part.

Recall the reported EC90 of COc1nc(C2=NOCC(c3ccc(Cl)cc3)N2)ccc1-n1cnc(C)c1 (configuration not stated) when tested on Gamma-secretase (Homo sapiens) (UniProt Q96BI3+Q9NZ42+Q8WW43+P49768+Q92542+P49810).
389

Provide EC90, recorded with Gamma-secretase (Homo sapiens) (UniProt Q96BI3+Q9NZ42+Q8WW43+P49768+Q92542+P49810), of COc1nc(C2=NOCC(c3cc(Cl)cc(Cl)c3)N2)ccc1-n1cnc(C)c1 (configuration not stated)
104

GET EC90 where system = Gamma-secretase (Homo sapiens) (UniProt Q96BI3+Q9NZ42+Q8WW43+P49768+Q92542+P49810) and item = COc1nc(C2=NOC[C@H](c3cc4ccccc4o3)N2)ccc1-n1cnc(C)c1
383

# return EC90 of COc1nc(C2=NOC(C)C(c3ccc(Cl)cc3)N2)ccc1-n1cnc(C)c1 (configuration not stated) (system: Gamma-secretase (Homo sapiens) (UniProt Q96BI3+Q9NZ42+Q8WW43+P49768+Q92542+P49810))
187

Specify the recorded EC90 for COc1nc(C2=NOCC(c3ccc(F)c(C(F)(F)F)c3)N2)ccc1-n1cnc(C)c1 (configuration not stated) , system: Gamma-secretase (Homo sapiens) (UniProt Q96BI3+Q9NZ42+Q8WW43+P49768+Q92542+P49810).
268

Find EC90 for COc1nc(C2=NOCC(c3ccc(C(F)(F)F)cc3)N2)ccc1-n1cnc(C)c1 (configuration not stated) on Gamma-secretase (Homo sapiens) (UniProt Q96BI3+Q9NZ42+Q8WW43+P49768+Q92542+P49810) and write it down.
407

Write down measured EC90 (Gamma-secretase (Homo sapiens) (UniProt Q96BI3+Q9NZ42+Q8WW43+P49768+Q92542+P49810)) for this compound. COc1nc(C2=NOCC(c3ccc(F)c(Cl)c3)N2)ccc1-n1cnc(C)c1 (configuration not stated)
278
